Molecular target: PI3Kδ (Homo sapiens, UniProt O00329)
Construct: made in house
Sequence (O00329 whole entry): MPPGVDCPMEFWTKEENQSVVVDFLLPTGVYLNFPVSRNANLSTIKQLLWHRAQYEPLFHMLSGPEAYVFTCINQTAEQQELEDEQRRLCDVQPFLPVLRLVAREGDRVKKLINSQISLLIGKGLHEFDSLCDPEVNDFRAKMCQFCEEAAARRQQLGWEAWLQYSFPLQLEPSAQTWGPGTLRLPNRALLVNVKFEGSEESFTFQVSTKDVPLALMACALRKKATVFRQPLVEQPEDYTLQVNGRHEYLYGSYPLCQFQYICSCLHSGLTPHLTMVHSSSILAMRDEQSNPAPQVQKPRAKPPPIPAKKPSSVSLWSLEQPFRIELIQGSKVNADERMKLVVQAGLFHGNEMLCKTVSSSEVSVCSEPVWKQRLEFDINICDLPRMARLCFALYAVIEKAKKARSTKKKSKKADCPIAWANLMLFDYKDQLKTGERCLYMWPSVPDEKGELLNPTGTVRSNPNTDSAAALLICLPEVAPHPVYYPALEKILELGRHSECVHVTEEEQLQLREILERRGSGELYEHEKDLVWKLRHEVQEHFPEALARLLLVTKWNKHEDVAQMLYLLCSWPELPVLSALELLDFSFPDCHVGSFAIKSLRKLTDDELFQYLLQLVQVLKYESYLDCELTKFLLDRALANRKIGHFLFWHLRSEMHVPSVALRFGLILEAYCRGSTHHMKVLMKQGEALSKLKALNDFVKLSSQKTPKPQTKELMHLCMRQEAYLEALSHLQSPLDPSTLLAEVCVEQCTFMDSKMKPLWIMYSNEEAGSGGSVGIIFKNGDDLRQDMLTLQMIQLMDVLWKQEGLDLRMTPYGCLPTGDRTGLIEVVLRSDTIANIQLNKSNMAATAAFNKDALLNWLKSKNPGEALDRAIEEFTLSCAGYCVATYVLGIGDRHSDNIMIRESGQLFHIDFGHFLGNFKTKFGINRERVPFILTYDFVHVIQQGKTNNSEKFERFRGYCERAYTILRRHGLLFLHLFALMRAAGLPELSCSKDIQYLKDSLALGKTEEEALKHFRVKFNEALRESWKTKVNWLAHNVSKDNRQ
Sequence (P27986 whole entry partner): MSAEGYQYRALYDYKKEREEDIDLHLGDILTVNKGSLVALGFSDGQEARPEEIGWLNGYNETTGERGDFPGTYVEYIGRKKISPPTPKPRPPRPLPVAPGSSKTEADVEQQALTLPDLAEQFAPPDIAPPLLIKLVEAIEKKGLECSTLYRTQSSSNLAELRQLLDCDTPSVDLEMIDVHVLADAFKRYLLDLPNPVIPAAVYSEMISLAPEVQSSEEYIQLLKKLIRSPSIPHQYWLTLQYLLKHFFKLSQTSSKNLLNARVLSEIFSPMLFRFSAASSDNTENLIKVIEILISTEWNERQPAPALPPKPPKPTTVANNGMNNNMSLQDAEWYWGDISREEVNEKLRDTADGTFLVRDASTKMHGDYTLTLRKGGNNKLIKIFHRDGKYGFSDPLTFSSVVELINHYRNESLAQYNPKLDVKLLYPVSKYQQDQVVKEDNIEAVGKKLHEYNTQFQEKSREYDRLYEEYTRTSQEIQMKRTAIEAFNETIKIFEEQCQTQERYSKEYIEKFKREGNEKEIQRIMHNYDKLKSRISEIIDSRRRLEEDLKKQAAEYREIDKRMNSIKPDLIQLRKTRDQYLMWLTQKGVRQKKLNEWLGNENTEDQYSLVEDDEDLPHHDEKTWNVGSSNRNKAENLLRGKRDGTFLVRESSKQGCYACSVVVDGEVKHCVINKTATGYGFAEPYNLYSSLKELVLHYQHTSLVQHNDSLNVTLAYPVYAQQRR
Assay: Enzymatic activity of PI3K isoforms, TR-FRET assay (PIP3 formation)
Format: biochemical
Conditions: PI3Kδ; TR-FRET, 2×Km ATP, 10 μM PIP2; read-out: IC50
pIC50: −log10 of the molar value.
readout_type: pIC50

molecule="Cc1ccc(C(F)F)cc1-n1c(C(C)Nc2nc(N)nc(N)c2C#N)nc2cccc(Cl)c2c1=O (single isomer, unassigned) [Compound 188a-2]" result="> 9.00"
molecule="Cc1ccc(Cl)c2c(=O)n(-c3cccc(Cl)c3)c(C(C)Nc3nc(N)nc(N)c3C#N)nc12 (single isomer, unassigned)" result="> 9.00"
molecule="CC(Nc1nc(N)nc(N)c1C#N)c1nc2cccc(C(F)F)c2c(=O)n1-c1cccc(C#N)c1 (single isomer, unassigned) [Compound 63a]" result="8.00 to 9.00"
molecule="CC(Nc1nc(N)nc(N)c1C#N)c1nc2cccc(Cl)c2c(=O)n1-c1cccc(C(F)F)c1 (single isomer, unassigned) [Compound 106a]" result="> 9.00"

According to the records, this molecule CC(Nc1nc(N)nc(N)c1C(N)=O)c1nc2cccc(Cl)c2c(=O)n1-c1cc(F)cc(F)c1 (single isomer, unassigned) [Compound 90a] displays pIC50 of 8.00 to 9.00

According to the records, this molecule COc1cccc2nc(C(C)Nc3nc(N)nc(N)c3C#N)n(-c3ccccc3)c(=O)c12 (single isomer, unassigned) [Compound 111a] displays pIC50 of 7.30 to 8.00
